Where do the numbers come from? From ChEMBL document CHEMBL1140538.

Here the recorded log10 of IC50 is given for each entry.
test-details: Inhibition of human CDK2/cyclin A
Please keep in mind that the values are log10 of IC50 expressed in nM.

Sample answers from the record:
CC(C)c1cnn2c(NCc3cccnc3)cc(-c3ccccc3)nc12    2.57
Brc1cnn2c(NCOc3cccnc3)cc(-c3ccccc3)nc12    1.53
CN(C)Cc1cnn2c(NCc3cccnc3)cc(-c3ccccc3)nc12    4.53

Look at this compound and give its reported log10 of IC50. `COc1cc(NCc2cccnc2)n2ncc(Br)c2n1`
1.54

Name the reported log10 of IC50 value associated with the compound `Brc1cnn2c(NCc3cccnc3)cc(C3CC3)nc12`
1.65

Fill blank: measured log10 of IC50 of the compound `N#CCc1cnn2c(NCc3cccnc3)cc(-c3ccccc3)nc12` is ____.
1.69

* * *

test-details: AUC in rat at 10 mg/kg
Assay type: ADME, organism-based
Set-up: dose 10 mg/kg
run-conditions: plasma
property-label: AUC
Write the numeric value and follow it with the unit.

Need AUC of `Fc1ccccc1-c1cc(NCOc2cccnc2)n2ncc(Br)c2n1` , thanks.
16.4 µM·h

* * *

test-details: AUC in dog at 5 mg/kg
Format: ADME, organism-based, Canis lupus familiaris
Design: dose 5 mg/kg
run-conditions: plasma
property-label: AUC (µM·h)
Your answer should be a plain number; it is taken to be in µM·h.

Query (compound): `Fc1ccccc1-c1cc(NCOc2cccnc2)n2ncc(Br)c2n1` ; field requested: AUC
2.44

* * *

test-details: Cmax in dog at 5 mg/kg, po
Type: ADME, organism-based, Canis lupus familiaris
Set-up: dose 5 mg/kg, route oral
run-conditions: in vivo
property-label: Cmax (nM)
Give your result in nM as a bare value.

Report Cmax for `Fc1ccccc1-c1cc(NCOc2cccnc2)n2ncc(Br)c2n1` please.
2580

* * *

Assay read-out pIC50; system under study: Glycogen synthase kinase-3 beta (Homo sapiens).
Sequence (P49841 whole entry): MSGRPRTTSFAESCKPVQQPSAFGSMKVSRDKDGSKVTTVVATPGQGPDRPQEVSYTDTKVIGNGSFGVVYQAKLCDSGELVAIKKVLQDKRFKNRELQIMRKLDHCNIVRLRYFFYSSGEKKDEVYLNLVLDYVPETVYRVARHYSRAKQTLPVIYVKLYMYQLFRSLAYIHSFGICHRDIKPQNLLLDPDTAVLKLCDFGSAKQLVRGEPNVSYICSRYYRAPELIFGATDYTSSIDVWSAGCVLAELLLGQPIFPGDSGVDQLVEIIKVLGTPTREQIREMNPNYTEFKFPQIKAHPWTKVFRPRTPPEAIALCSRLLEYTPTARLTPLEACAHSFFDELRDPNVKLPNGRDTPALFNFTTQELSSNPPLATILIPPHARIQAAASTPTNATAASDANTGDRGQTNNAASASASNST
Reminder that pIC50 is minus the log10 of a molar concentration.

Check out these entries, answers already filled in.
Brc1cnn2c(NCc3cccnc3)cc(-c3cccs3)nc12    6.32
CCc1cc(NCc2cccnc2)n2ncc(Br)c2n1    6.04
CNc1cc(-c2ccccc2Cl)nc2c(Br)cnn12    6.61
Fc1ccccc1-c1cc(Nc2ccccc2)n2ncc(Br)c2n1    4.88
N#CCc1cnn2c(NCc3cccnc3)cc(-c3ccccc3)nc12    5.96

Checklist item: pIC50 tested on Glycogen synthase kinase-3 beta (Homo sapiens), entry `CC(C)c1cc(NCc2cccnc2)n2ncc(Br)c2n1` , value?
6.38

Provide the documented pIC50 with Glycogen synthase kinase-3 beta (Homo sapiens) as the system for `Brc1cnn2c(NCc3cccnc3)cc(C3CC3)nc12`
5.95

Give the reported pIC50 for `Fc1ccccc1-c1cc(NCc2ccccc2)n2ncc(Br)c2n1` (system: Glycogen synthase kinase-3 beta (Homo sapiens)).
4.82

Query for Glycogen synthase kinase-3 beta (Homo sapiens): what pIC50 does the record show for `Clc1ccccc1-c1cc(NCOc2cccnc2)n2ncc(Br)c2n1` ?
7.46

Hi! What's the reported pIC50 for `CSc1cc(NCc2cccnc2)n2ncc(Br)c2n1` on Glycogen synthase kinase-3 beta (Homo sapiens)?
5.93

Identify the measured pIC50 of `CC(=O)NCCSc1cnn2c(NCc3cccnc3)cc(-c3ccccc3)nc12` for Glycogen synthase kinase-3 beta (Homo sapiens).
7.47

* * *

test-details: Effect on cell proliferation assessed as radiolabeled thymidine incorporation in cell-based assay
Assay type: functional
run-conditions: Homo sapiens
property-label: pIC50
Recall that pIC50 is obtained by taking minus log10 of the concentration measured in molar.

CNc1cc(-c2ccccc2Cl)nc2c(Br)cnn12    5.74
Brc1cnn2c(NCc3cccnc3)cc(C3CCCCC3)nc12    6.70
Brc1cnn2c(NCOc3cccnc3)cc(-c3ccccc3)nc12    6.85
Brc1cnn2c(NCc3cccnc3)cc(C3CC3)nc12    5.82
Brc1cnn2c(NCc3cccnc3)cc(-c3cccs3)nc12    6.12

Report pIC50 for `Fc1ccccc1-c1cc(NCOc2cccnc2)n2ncc(Br)c2n1` please.
6.68

Can you share its pIC50? I mean this compound: `CS(=O)(=O)c1ccc(Nc2cc(-c3ccccc3Cl)nc3c(Br)cnn23)cc1`
6.05

I would be grateful if you could share the reported pIC50 for `CSc1cc(NCc2cccnc2)n2ncc(Br)c2n1` .
6.00

Please report the recorded pIC50 for `Clc1ccccc1-c1cc(NCc2cccnc2)n2ncc(Br)c2n1` .
6.30

Any idea what pIC50 was measured for CC(O)c1cc(NCc2cccnc2)n2ncc(Br)c2n1 (stereo not given) ?
5.85

What measured pIC50 goes with `Clc1ccccc1-c1cc(NCOc2cccnc2)n2ncc(Br)c2n1` ?
6.77

Tell me the measured pIC50 of `Brc1cnn2c(NCc3cccnc3)cc(C3CCNCC3)nc12` , please.
6.80

What measured pIC50 goes with `CC(C)c1cc(NCc2cccnc2)n2ncc(Br)c2n1` ?
6.02

* * *

test-details: Tmax in mouse at 40 mg/kg
Assay type: ADME, organism-based
Parameters: dose 40 mg/kg
run-conditions: in vivo
property-label: Tmax
Dear colleague, please send the value followed by its unit.

I am curious: what Tmax value has been reported for `Fc1ccccc1-c1cc(NCOc2cccnc2)n2ncc(Br)c2n1` ?
2 h

* * *

test-details: AUC in mouse at 40 mg/kg
Format: ADME, organism-based
Design: dose 40 mg/kg
run-conditions: plasma
property-label: AUC (µM·h)
Please respond with the number in µM·h and leave the unit unwritten.

Which AUC value is on record for `Fc1ccccc1-c1cc(NCOc2cccnc2)n2ncc(Br)c2n1` ?
17.9

* * *

test-details: Tmax in monkey at 10 mg/kg
Type: ADME, organism-based, Macaca mulatta
Set-up: dose 10 mg/kg
run-conditions: rhesus monkey, in vivo
property-label: Tmax (h)
Express your answer in h, writing the number without its unit.

Bench note: what Tmax did `Fc1ccccc1-c1cc(NCOc2cccnc2)n2ncc(Br)c2n1` show?
3.3

* * *

test-details: Tmax in rat at 10 mg/kg
Format: ADME, organism-based
Parameters: dose 10 mg/kg
run-conditions: in vivo
property-label: Tmax (h)
Form entry: value (h) — number only.

Which Tmax value is on record for `Fc1ccccc1-c1cc(NCOc2cccnc2)n2ncc(Br)c2n1` ?
2

* * *

test-details: Inhibition of human CDK2/cyclin A
The label Met is reserved for IC50 strictly under 200 nM; Not met covers values equal to or above it.

Consider the following illustrative entries.
Clc1cccc(-c2cc(NCc3ccncc3)n3nccc3n2)c1Cl    Not met
COc1cnn2c(NCc3cccnc3)cc(-c3ccccc3)nc12    Not met
Brc1cnn2c(NCc3cccnc3)cc(C3CCNCC3)nc12    Met
C#CCc1cnn2c(NCc3cccnc3)cc(-c3ccccc3)nc12    Not met
C#Cc1cnn2c(NCc3cccnc3)cc(-c3ccccc3)nc12    Met
OCc1cnn2c(NCc3cccnc3)cc(-c3ccccc3)nc12    Not met

Is IC50 of `Clc1ccccc1-c1cc(NC2CC2)n2ncc(Br)c2n1` strictly below 200 nM?
Not met

In plain terms, does `Fc1ccccc1-c1cc(NCOc2cccnc2)n2ncc(Br)c2n1` come in under 200 nM for IC50?
Met

Item `Cc1cnn2c(NCc3cccnc3)cc(-c3ccccc3)nc12` : IC50 beneath 200 nM, strictly?
Met

Below 200 nM on IC50? Entry `CCc1cc(NCc2cccnc2)n2ncc(Br)c2n1`
Met

Hello, I'm reviewing records and need to know if IC50 of `CCCCc1cnn2c(NCc3cccnc3)cc(-c3ccccc3)nc12` is below 200 nM. Could you check?
Not met

State whether 200 nM exceeds IC50 recorded for `FC(F)(F)c1cnn2c(NCc3cccnc3)cc(-c3ccccc3)nc12` .
Met

Bench note: check whether `Cc1cc(NCc2cccnc2)n2ncc(Br)c2n1` shows IC50 below 200 nM
Met

# strict comparison: is reported IC50 < 200 nM? input = `Nc1cc(-c2ccccc2)nc2c(Br)cnn12`
Not met

Criterion: IC50 strictly below 200 nM. Is it met by `c1ccc(Cc2cnn3c(NCc4cccnc4)cc(-c4ccccc4)nc23)cc1` ?
Not met

Take the compound `Brc1cnn2c(NCc3cccnc3)cc(N3CCNCC3)nc12` and say whether its IC50 is less than 200 nM.
Not met

Does the reported IC50 of `Cc1ccccc1-c1cc(NCc2ccc[n+]([O-])c2)n2ncc(Br)c2n1` stay below 200 nM?
Met

Below 200 nM on IC50? Entry `CCCc1cnn2c(NCc3cccnc3)cc(-c3ccccc3)nc12`
Not met

Does `CCc1cnn2c(NCc3cccnc3)cc(-c3ccccc3)nc12` have IC50 strictly under 200 nM?
Met

Strictly below 200 nM in IC50? `Brc1cnn2c(NCc3cccnc3)cc(-c3ccco3)nc12`
Met

Regarding `CSc1cnn2c(NCc3cccnc3)cc(-c3ccccc3)nc12` , kindly confirm whether its IC50 is beneath 200 nM.
Met

Is IC50 of `Brc1cnn2c(NCc3cccnc3)cc(-c3cccs3)nc12` strictly below 200 nM?
Met

# TODO verify IC50 < 200 nM strictly for this compound: `FC(F)(F)Cc1cnn2c(NCc3cccnc3)cc(-c3ccccc3)nc12`
Not met

In plain terms, does `CSc1cc(NCc2cccnc2)n2ncc(Br)c2n1` come in under 200 nM for IC50?
Met

Here's an entry: `CS(=O)(=O)c1ccc(Nc2cc(-c3ccccc3Cl)nc3c(Br)cnn23)cc1` . Is its IC50 below 200 nM?
Not met

# check: IC50 < 200 nM for `CCOC(=O)c1cc(NCc2cccnc2)n2ncc(Br)c2n1`
Met

In plain terms, does `c1ccc(-c2cc(NCc3cccnc3)n3ncc(C4CC4)c3n2)cc1` come in under 200 nM for IC50?
Met

Input `Clc1ccccc1-c1cc(NCOc2cccnc2)n2ncc(Br)c2n1` ; condition: IC50 strictly below 200 nM. Does it hold?
Met
